Reported log10 of IC50 values for the following compounds.
biological target: UniProt:P43088; test: In vitro test of inhibition of human FP receptor activity (PGF2α-induced calcium flux in FP-expressing CHEM1 cells); settings: PGF2α 2 nM, some mean values of multiple determinations
Value Kind: log10 of IC50 (log10 of the value in nM)

Cc1c(N2CC3CC(C3)C2)nc2ccc(Br)cc2c1C(=O)NCC(CCC(=O)O)c1ccccc1Cl (racemic) [Example 73] : 1.68
CCC1CCCN(c2nc3ccc(Br)cc3c(C(=O)NCC(CCC(=O)O)c3ccccc3OC(F)(F)F)c2C)C1 (single isomer, unassigned; (+)) [Example 208] : 0.15
Cc1c(N2CCCC(F)C2)nc2ccc(Br)cc2c1C(=O)NCC(CCC(=O)O)c1ccccc1Cl (stereo not shown) [Example 78] : 0.64
Cc1ccc(F)cc1C(CCC(=O)O)CNC(=O)c1c(C)c(N2CCCCC2)nc2ccc(Br)cc12 (single isomer, unassigned; (+)) [Example 149] : 1.11
Cc1c(N2CCCCC2)nc2ccc(Br)cc2c1C(=O)NCC(CCC(=O)O)c1c(F)cccc1C(F)(F)F (single isomer, unassigned; (-)) [Example 161] : 0.15
Cc1ccccc1C(CCC(=O)O)CNC(=O)c1c(C)c(N2CCCCCC2)nc2ccc(Br)cc12 (racemic) [Example 243] : 1.04
Cc1c(N2CCCC(F)C2)nc2ccc(Br)cc2c1C(=O)NCC(CCC(=O)O)c1c(F)cccc1C(F)(F)F (stereo not shown) [Example 169] : 0.96
Cc1c(N2CCCC(F)(F)C2)nc2ccc(Br)cc2c1C(=O)NCC(CCC(=O)O)c1c(Cl)cccc1Cl (single isomer, unassigned; (+)) [Example 266] : 1.57
[2H]C1([2H])N(c2nc3ccc(Br)cc3c(C(=O)NCC(CCC(=O)O)c3c(F)ccc(F)c3Cl)c2C)C([2H])([2H])C([2H])([2H])C1([2H])[2H] (single isomer, unassigned; (+)) [Example 281] : 1.90
Cc1c(N2CCc3ccccc3C2)nc2ccc(Br)cc2c1C(=O)NCC(CCC(=O)O)c1ccccc1Cl (racemic) [Example 84] : 1.45
Cc1ccccc1C(CCC(=O)O)CNC(=O)c1c(C)c(N2CCCC2)nc2ccc(Br)cc12 (racemic) [Example 232] : 1.26
Cc1c(N2CCCCC2)nc2ccc(Br)cc2c1C(=O)NCC(CCC(=O)O)c1c(F)cccc1OC(F)F (racemic) [Example 182] : 0.46
Cc1c(N2CCCCC2)nc2ccc(Br)cc2c1C(=O)NCC(CCC(=O)O)c1ccccc1C(F)(F)F (single isomer, unassigned; (+)) [Example 113] : 1.00
Cc1c(N2CCCC(C)C2)nc2ccc(Br)cc2c1C(=O)NCC(CCC(=O)O)c1ccccc1OC(F)(F)F (single isomer, unassigned; (+)) [Example 211] : 1.23
CCC1CCCN(c2nc3ccc(Br)cc3c(C(=O)NCC(CCC(=O)O)c3ccccc3OC(F)(F)F)c2C)C1 (single isomer, unassigned) [Example 206] : 0.98
COc1ccccc1C(CCC(=O)O)CNC(=O)c1c(C)c(N2CCCCCC2)nc2ccc(Br)cc12 (single isomer, unassigned; (+)) [Example 239] : 0.15
CCC1CCCN(c2nc3ccc(Br)cc3c(C(=O)NCC(CCC(=O)O)c3ccccc3C(F)(F)F)c2C)C1 (stereo not shown) [Example 124] : 0.45
Cc1c(N2CCCCC2)nc2ccc(Br)cc2c1C(=O)NCC(CC(=O)O)c1c(F)cccc1Cl (racemic) [Example 1] : 1.41
Cc1c(N2CCCC2)nc2ccc(Br)cc2c1C(=O)NCC(CCC(=O)O)c1ccccc1OC(F)(F)F (single isomer, unassigned; (-)) [Example 130] : 0.41
Cc1c(N2CCCC(F)(F)C2)nc2ccc(Br)cc2c1C(=O)NCC(CCC(=O)O)c1c(Cl)ccc(Cl)c1Cl (racemic) [Example 177] : 1.00
Cc1c(N2CCCC(C)C2)nc2ccc(Br)cc2c1C(=O)NCC(CCC(=O)O)c1c(F)ccc(F)c1Cl (stereo not shown) [Example 157] : 0.23
Cc1c(N2CCCCC2)nc2ccc(Br)cc2c1C(=O)NCC(CCC(=O)O)c1c(Cl)cccc1Cl (racemic) [Example 241] : 1.08
Cc1c(N2CCCC2)nc2ccc(Br)cc2c1C(=O)NCC(CCC(=O)O)c1c(F)ccc(F)c1Cl (single isomer, unassigned; (-)) [Example 216] : 0.46
Cc1c(N2C[C@@H](C)O[C@@H](C)C2)nc2ccc(Br)cc2c1C(=O)NCC(CCC(=O)O)c1cc(F)ccc1Cl (mixture of isomers) [Example 12] : 2.34
Cc1c(N2CCCC(F)(F)C2)nc2ccc(Br)cc2c1C(=O)NCC(CCC(=O)O)c1ccccc1C(F)(F)F (racemic) [Example 117] : 1.20

====

Molecular target: FP receptor (Homo sapiens (Human))
Assay: In vitro test of inhibition of human FP receptor activity (PGF2α-induced calcium flux in FP-expressing CHEM1 cells)
Conditions: PGF2α 2 nM, some mean values of multiple determinations
Procedure: B-1. In Vitro Test of Inhibition of Human FP Receptor Activity For the characterization of test substances in respect of FP antagonism, PGF2α-induced calcium flux in FP-expressing CHEM1 cells (Millipore, HTS093C) was used. 10 μl of the prediluted substance solution are added to the Fluo-8-laden cells and incubated at 37° C., 5% CO2 for 10 minutes. […]
Structures can show the parent of a compound that is named as a salt.
IC50 strictly under 10 nM means rule met; at 10 nM or over means rule not met.

Cc1c(N2CCCC(F)(F)C2)nc2ccc(Br)cc2c1C(=O)NCC(CCC(=O)O)c1c(F)ccc(F)c1Cl (single isomer, unassigned; (-)) [Example 218] : rule met
Cc1c(N2CCCC(C)(O)C2)nc2ccc(Br)cc2c1C(=O)NCC(CCC(=O)O)c1ccccc1Cl (stereo not drawn) : rule not met
Cc1c(N2CCCCC2)nc2ccc(Br)cc2c1C(=O)NCC(CCC(=O)O)c1c(Cl)ccc(F)c1F (single isomer, unassigned; (+)) [Example 146] : rule not met
Cc1c(N2CCCO2)nc2ccc(Br)cc2c1C(=O)NCC(CCC(=O)O)c1cc(F)ccc1Cl (racemic) : rule not met
Cc1c(N2CCCC2)nc2ccc(Br)cc2c1C(=O)NCC(CCC(=O)O)c1c(F)cccc1C(F)(F)F (single isomer, unassigned; (+)) [Example 164] : rule not met
Cc1c(N2CCCCC2)nc2ccc(Br)cc2c1C(=O)NCC(CCC(=O)O)c1ccccc1C(F)(F)F (single isomer, unassigned; (-)) [Example 112] : rule met
Cc1c(N2CCCC(C)C2)nc2ccc(Br)cc2c1C(=O)NCC(CCC(=O)O)c1ccccc1Cl (single isomer, unassigned; (-)) [Example 49] : rule not met
Cc1c(N2CCCC2)nc2ccc(Br)cc2c1C(=O)NCC(CCC(=O)O)c1c(Cl)ccc(Cl)c1Cl (single isomer, unassigned; (-)) [Example 176, formate] : rule met
Cc1c(N2CCCCC2)nc2ccc(Br)cc2c1C(=O)NCC(CCC(=O)O)c1c(Cl)ccc(Cl)c1Cl (racemic) [Example 171] : rule met
Cc1c(N2CCCC2)nc2ccc(Br)cc2c1C(=O)NCC(CCC(=O)O)c1cc(F)ccc1Cl (racemic) : rule not met
Cc1c(N2CCCC2)nc2ccc(Br)cc2c1C(=O)NCC(CCC(=O)O)c1ccccc1C(F)(F)F (single isomer, unassigned; (-)) [Example 280] : rule met

====

Measured pIC50 accompanies every entry in the list below.
target: FP receptor (Homo sapiens (Human), UniProt P43088); assay: In vitro test of inhibition of human FP receptor activity (PGF2α-induced calcium flux in FP-expressing CHEM1 cells); type: cell-based; settings: PGF2α 2 nM, some mean values of multiple determinations
Sequence (P43088 whole entry): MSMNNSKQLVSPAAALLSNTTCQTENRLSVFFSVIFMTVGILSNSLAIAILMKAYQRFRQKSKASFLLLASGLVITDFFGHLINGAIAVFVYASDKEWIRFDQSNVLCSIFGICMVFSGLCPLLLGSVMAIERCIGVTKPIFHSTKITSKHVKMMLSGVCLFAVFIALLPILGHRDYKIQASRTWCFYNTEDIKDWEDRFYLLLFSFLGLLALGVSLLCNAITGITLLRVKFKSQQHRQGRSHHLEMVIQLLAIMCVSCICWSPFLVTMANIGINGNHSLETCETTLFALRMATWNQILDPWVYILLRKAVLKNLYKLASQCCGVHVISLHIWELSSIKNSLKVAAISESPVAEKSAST
pIC50: −log10 of the molar value.
Value Kind: pIC50

COc1ccccc1C(CCC(=O)O)CNC(=O)c1c(C)c(N2CCCC2)nc2ccc(Br)cc12 (single isomer, unassigned; (-)) [Example 238] : 7.36
Cc1c(N2CCC[C@@H]2C)nc2ccc(Br)cc2c1C(=O)NCC(CCC(=O)O)c1ccccc1Cl (single isomer, unassigned; (-)) [Example 81] : 6.74
COC1CN(c2nc3ccc(Br)cc3c(C(=O)NCC(CCC(=O)O)c3ccccc3Cl)c2C)C1 (racemic) [Example 92] : 6.41
Cc1c(N2CCCC(F)C2)nc2ccc(Br)cc2c1C(=O)NCC(CCC(=O)O)c1ccccc1Cl (single isomer, unassigned; (-)) [Example 186] : 8.07
Cc1c(N2CCCCC2)nc2ccc(Br)cc2c1C(=O)NCC(CCC(=O)O)c1cc(F)ccc1Cl (single isomer, unassigned; (+)) [Example 7] : 8.18
Cc1c(N2CCCCC2)nc2ccc(Br)cc2c1C(=O)NCC(CCC(=O)O)c1c(Cl)ccc(Cl)c1Cl (single isomer, unassigned; (+)) [Example 172] : 7.39

====

Let's look at some compounds and their measured IC50.
target: UniProtKB P43088; experiment: In vitro test of inhibition of human FP receptor activity (PGF2α-induced calcium flux in FP-expressing CHEM1 cells); details: PGF2α 2 nM, some mean values of multiple determinations
Value Kind: IC50

COC1CCCN(c2nc3ccc(Br)cc3c(C(=O)NCC(CCC(=O)O)c3cc(F)ccc3Cl)c2C)C1 (centres unmarked) : 130 nM
Cc1c(N2CCCC(C)C2)nc2ccc(Br)cc2c1C(=O)NCC(CCC(=O)O)c1ccccc1Cl (single isomer, unassigned; (-)) [Example 46] : 1.3 nM
Cc1c(N2CCCC(F)(F)C2)nc2ccc(Br)cc2c1C(=O)NCC(CCC(=O)O)c1c(F)cccc1C(F)(F)F (racemic) [Example 166] : 9.5 nM
Cc1c(N2CCCC(C)C2)nc2ccc(Br)cc2c1C(=O)NCC(CCC(=O)O)c1ccccc1OC(F)(F)F (single isomer, unassigned; (+)) [Example 212] : 1.9 nM
Cc1ccc(F)cc1C(CCC(=O)O)CNC(=O)c1c(C)c(N2CCCC(F)(F)C2)nc2ccc(Br)cc12 (single isomer, unassigned; (-)) [Example 213] : 10 nM
